# measured.target: T1, recombinant rat CTGF protein (R&D Systems) (rat, UniProt Q9R1E9 25-347)
# T1 construct: Bought; also called rCTGF
# T1 sequence: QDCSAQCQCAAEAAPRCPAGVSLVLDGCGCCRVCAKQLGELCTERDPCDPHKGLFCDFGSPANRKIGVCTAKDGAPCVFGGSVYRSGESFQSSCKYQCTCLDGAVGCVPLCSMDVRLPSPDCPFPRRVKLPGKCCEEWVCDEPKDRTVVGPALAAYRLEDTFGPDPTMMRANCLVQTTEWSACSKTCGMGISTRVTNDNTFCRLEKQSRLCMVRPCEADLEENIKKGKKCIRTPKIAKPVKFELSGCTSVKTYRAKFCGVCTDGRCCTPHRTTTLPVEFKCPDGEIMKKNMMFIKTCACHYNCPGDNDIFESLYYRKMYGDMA
# protocol.notes: SPR (Biacore)
Examples of binders with documented kon follow.
Report the value in M⁻¹ s⁻¹ with no unit label.

Please review the following examples before continuing.
lipocalin mutein of SEQ ID NO: 9 (designed binder, Parent hNGAL mutein; also called hNGAL mutein) QDSTSDLIPAPPLSKVPLQQNFQDNQFHGKWYVVGLAGNKILRIDKQPAKMFATIYELKEDKSYDVTSVRFEARSCSYTIKTFVPGSQPGEFTAGNIKSAPGQTSTLVRVVSTNYNQHAMVFFKHVSQNRETFVITLYGRTKELTSELKENFIRFSKSLGLPENHIVFPVPIDQCIDGSAWSHPQFEK; 105000
lipocalin mutein of SEQ ID NO: 7 (designed binder, Parent hNGAL mutein; also called hNGAL mutein) QDSTSDLIPAPPLSKVPLQQNFQDNQFHGKWYVVGLAGNYGLRTDKRPSKMFATIYELKEDKSYDVTSVRFEQERCHYTIRTFVPGSQPGEFTTGSIKSRPGQTSSLVRVVSTNYNQHAMVFFKSVIQNREYFAITLYGRTKELTSELKENFIRFSKSLGLPENHIVFPVPIDQCIDGSAWSHPQFEK; 120000
lipocalin mutein of SEQ ID NO: 15 (designed binder, also called hNGAL mutein; not shown: C-terminal His-tag) QDSTSDLIPAPPLSKVPLQQNFQDNQFQGKWYVVGLAGNAILREDKQPAKMFATIYELKEDKSYDVTSVRFEAKSCKYTIKTFVPGSQPGEFTAGYIKSAPGQTSTLVRVVSTNYNQHAMVFFKHVTQNREIFVITLYGRTKELTSELKENFIRFSKSLGLPENHIVFPVPIDQCIDG; 120000
lipocalin mutein of SEQ ID NO: 35 (designed binder, also called hNGAL mutein; not shown: C-terminal His-tag) QDSTSDLIPAPPLSKVPLQQNFQDNQFQGKWYVVGWAGNVKLREDKQPLKMSATIYELKEDKSYDVTEVVFEQKKCHYIIKTFVPGSQPGEFTAGDIKSPPGYTSSLVRVVSTNYNQHAMVFFKKVSQNREFFWITLYGRTKELTSELKENFIRFSKSLGLPENHIVFPVPIDQCIDG; 193000
lipocalin mutein of SEQ ID NO: 22 (designed binder, also called hNGAL mutein; not shown: C-terminal His-tag) QDSTSDLIPAPPLSKVPLQQNFQDNQFQGKWYVVGIAGNAILRVDKQPAKMFATIYELKEDKSYDVTSVRFEAKSCVYTIKTFVPGSQPGEFTAGNIKSAPGQTSTLVRVVSTNYNQHAMVFFKHVSQNREIFVITLYGRTKELTSELKENFIRFSKSLGLPENHIVFPVPIDQCIDG; 181000

Now turn to the next binder.
Inquiry: // query kon value for entry lipocalin mutein of SEQ ID NO: 29 (designed binder, Parent hNGAL mutein; also called hNGAL mutein) QDSTSDLIPAPPLSKVPLQQNFQDNQFHGKWYVVGWAGNIKLREDKDPFKMSATIYELKEDKSYNVTEVVFEQKKCHYIIKTFVPGSQPGEFTLGDIKSPPGETSSLVRVVSTNYNQHAMVFFKKVFQNREFFWITLYGRTKELTSELKENFIRFSKSLGLPENHIVFPVPIDQCIDGSAWSHPQFEK
Reply text: 176000

Reference source: patent US20240228562A1
